System: NCI-H23
Assay: NCI tumour cell line growth inhibition, 48 h
Active and inactive are the calls of the source. No stated cut-off is given here; in the data, active = GI50 up to about 1.1 µM and inactive = higher.
experimental_endpoint: GI50

* O=C(c1cc2c(c3ccccc13)NC1(CCCCC1)N=C2C(F)(F)F)C(F)(F)F | 3.83 µM (inactive)
* COc1ccc(CC2=NCCc3cc(OC)c(OC)cc32)cc1Br | 8.69 µM (inactive)

In: Which measured GI50 value corresponds to O=S(=O)(CC1=NC2C=CC=CC2N=C1)NCc1ccccc1 (configuration not stated) ?
Out: > 100 µM (inactive)

In: Similarly, Cc1ccc(NC(=O)c2c(C)nc(=O)n3c2N(/N=C/c2ccc(Cl)cc2)CC3)cc1 ?
Out: 14.2 µM (inactive)

In: Now consider CCOC(=O)c1c2c(n(C)c1-c1ccccc1)C(=O)C(C)=CC2=O and answer again.
Out: 11.6 µM (inactive)

In: Then this compound: CCOC(=O)c1cc(=O)c2cccc3c2n1CCS3
Out: > 100 µM (inactive)

In: Repeat with CC(C)OCC(O)COc1cc(=O)oc2ccccc12 (configuration not stated)
Out: > 100 µM (inactive)

The origin of these recorded values is ChEMBL document CHEMBL1201862.
